Test: Solid-state stability at 40° C. and 75% RH (purity by HPLC)
Type: physicochemical
Conditions: solid powder, 2 Months
ASSAY READOUT: Solid-state stability, purity by HPLC, 2 Months (%)

I. CN1N=C(c2ccc(S(C)(=O)=O)cc2)C(C)(NO)C1=O (stereo not drawn)
II. CN1N=C(c2ccc(Cl)cc2)C(C)(NO)C1=O (stereo not drawn)
Query: Higher Solid-state stability, purity by HPLC, 2 Months: I or II ? Could you answer with the label of the item you picked?
Reply: II
(II: 99.8%, I: 68%)

----------
Test: In vitro plasma stability, human plasma
Type: in vitro ADME
Conditions: male, pH 7.4, 5 μM, 37° C., sampling 0-360 minutes, read-out: T1/2 Human
ASSAY READOUT: half-life at 5 μM (min)

The examples below pair each entry with its known result.
CN1N=C(c2ccc(C(=O)N3CCOCC3)cc2)C(C)(NO)C1=O (stereo not shown) [Compound 81] | 76
CN1N=C(c2ccc(S(C)(=O)=O)cc2)C(C)(NO)C1=O (stereo not shown) [Compound 14] | 49
CC1(NO)C(=O)NN=C1c1ccc(S(C)(=O)=O)cc1 (stereo not shown) [Compound 133] | 110
CN1N=C(c2ccc(S(=O)(=O)c3ccccc3)cc2)C(C)(NO)C1=O (stereo not shown) [Compound 89] | 57

I. CN1N=C(c2ccc([S+](C)[O-])c(F)c2)C(C)(NO)C1=O (stereo not shown) [Compound 38]
II. CO/N=C(\C)C1(NO)C(=O)N(C)N=C1c1ccc(S(=O)(=O)N(C)C)cc1 (stereo not shown) [Compound 121]
III. CSc1ccc(C2=NN(C)C(=O)C2(C)NO)cc1 (stereo not shown) [Compound 36]
Query: Returns the items ordered by half-life at 5 μM, from maximum to minimum. Lab note: final answer is the ordered label list.
Reply: III, I, II

1. COCCN(C)S(=O)(=O)c1ccc(C2=NN(C)C(=O)C2(C)NO)cc1 (stereo not shown) [Compound 90]
2. CC(C)(C)C1=NN(c2ccccc2)C(=O)C1(C)NO (stereo not shown) [Compound 23]
3. CO/N=C(\C)C1(NO)C(=O)N(C)N=C1c1ccc(C(=O)N(C)C)cc1 (stereo not shown) [Compound 123]
Query: Returns the items ordered by half-life at 5 μM, from maximum to minimum. Lab note: final answer is the ordered label list.
Reply: 2, 1, 3

a. CN1N=C(c2ccccc2Cl)C(C)(NO)C1=O (stereo not shown) [Compound 2]
b. CN1N=C(c2ccc(S(C)(=O)=O)c(N3CCNCC3)c2)C(C)(NO)C1=O (stereo not shown) [Compound 93]
c. CN1N=C(c2ccccc2)C(C)(NO)C1=O (stereo not shown) [Compound 15]
d. CCO/N=C(\C)C1(NO)C(=O)N(C)N=C1C(C)(C)C (stereo not shown) [Compound 112]
Query: Returns the items ordered by half-life at 5 μM, from maximum to minimum. Lab note: final answer is the ordered label list.
Reply: c, a, b, d
(c: 80 min, a: 52 min, b: 35 min, d: 10 min)

I. Cc1cc(C2=NN(C)C(=O)C2(C)NO)cc(C)c1S(C)(=O)=O (stereo not shown) [Compound 79]
II. CN1N=C(c2ccc(Cl)cc2)C(C)(NO)C1=O (stereo not shown) [Compound 1]
Query: Between I and II , which one has the lower reported half-life at 5 μM value? Could you answer with the label of the item you picked?
Reply: I
(I: 49 min, II: 84 min)

All values here come from patent US9682938B2.
